Molecular target: T1, human GIP receptor (human), P48546
T1 chain: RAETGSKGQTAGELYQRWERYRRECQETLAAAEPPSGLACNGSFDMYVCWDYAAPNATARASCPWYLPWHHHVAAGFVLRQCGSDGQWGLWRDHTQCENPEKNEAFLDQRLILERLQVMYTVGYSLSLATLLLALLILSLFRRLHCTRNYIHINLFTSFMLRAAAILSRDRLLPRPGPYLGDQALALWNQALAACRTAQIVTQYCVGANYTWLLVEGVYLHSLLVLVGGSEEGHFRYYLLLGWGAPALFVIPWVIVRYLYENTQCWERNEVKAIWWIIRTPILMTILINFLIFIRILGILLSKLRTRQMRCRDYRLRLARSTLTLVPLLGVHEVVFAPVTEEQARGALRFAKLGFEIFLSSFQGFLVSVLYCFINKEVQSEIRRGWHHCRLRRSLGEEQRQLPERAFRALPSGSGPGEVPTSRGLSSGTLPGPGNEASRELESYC
Experiment: displacement of [125I]GIP from HEK-293 membranes expressing hGIPR (SPA beads)
Square brackets hold non-standard residues; d marks the D form. Ends that are not written are not given here. Aib = CC(C)(N)C(=O)O
observed-property: IC50 (nM)

binder: Y[Aib]EGTFISDLSI[Aib]LEEQKQ[Aib]EFIEWLLAQGPSSGEPPPS-NH2 [SEQ ID NO: 38]
observed-property: IC50
reported: 0.2
